# experiment: Toxicity liver stage against HepG2, at 10uM
# Assay type: cell-based
# Set-up: test concentration 10 uM, cell line HepG2-A16-CD81EGFP
# condition.info: human, HepG2-A16-CD81EGFP cells; read-out: INHIBITION
recorded.endpoint: cytotoxicity at 10 µM (%)
Kindly provide the numeric value in % only, without the unit symbol.

Some solved cases for reference:
compound | unit.string | cytotoxicity at 10 µM
CC(C)C1CN(C(=O)c2ccc(Cl)cn2)CCCN1CC1CC1 (configuration not stated) | % | 5.15
CCOC(=O)C1CCN(C(=O)Cn2ccc3cc(Br)ccc32)CC1 | % | -8.23
O=c1[nH]c(N2CCOCC2)nc2c1CN(Cc1cccnc1)CC2 | % | 12.3
CN(Cc1ccsc1)C(=O)Cn1c(CS(C)(=O)=O)nc2ccccc21 | % | 6.96
COCCNC(=O)c1cccnc1Sc1cc(OC)ccc1OC | % | 0.734
CCS(=O)(=O)N1Cc2ncn(CC3CC3)c2C(COC)C1 (configuration not stated) | % | 8.83
CCn1ccnc1-c1nccn1-c1ccccc1CN1CCOCC1 | % | 14.1
NC(=O)NC(=O)C(c1ccccc1)N1CCN(Cc2ccccc2)CC1 (configuration not stated) | % | -5.68

Quick check: cytotoxicity at 10 µM of COCCc1ncc(CN2CCC(Oc3ccccc3C)CC2)cn1 ?
4.67

Quick check: cytotoxicity at 10 µM of Cc1noc(C)c1CC(=O)N1CCc2sccc2C1 ?
-18.4

So what does the record say about cytotoxicity at 10 µM for NS(=O)(=O)c1cnn(CCC(=O)N(Cc2ccccc2)C2CC2)c1 ?
4.53

GET /values?readout=cytotoxicity at 10 µM&item= CCN1Cc2c(C(=O)NC(C)C(C)C)ncn2-c2ccccc2S1(=O)=O (configuration not stated)
-66.3

Item COCC[C@]1(O)CCN(C(=O)CCn2c(C)cccc2=O)C[C@H]1C has what recorded cytotoxicity at 10 µM?
3.28

Looking for the measured cytotoxicity at 10 µM of CCc1n[nH]c(C2CN(C(=O)c3nc(C)ncc3Cl)CCO2)n1 (configuration not stated) , can you help?
-7.25

Looking for the measured cytotoxicity at 10 µM of COCCN1CCO[C@@H]2CN(Cc3cc(OC)cc(OC)c3)C[C@@H]2C1 , can you help?
38.8

Would you mind telling me what cytotoxicity at 10 µM value was observed for COc1cc(C)nc(N2CCN(C(=O)CSC)CC2)n1 ?
-6.42

Any idea what its cytotoxicity at 10 µM is? The compound is O=C(c1cccs1)N1CC(C(=O)N2CCCC2)C2(CCOCC2)C1 (configuration not stated)
-2.64

Fill in the blank: the reported cytotoxicity at 10 µM of CN(Cc1cc(C2CC2)on1)C(=O)C(c1cccnc1)N1CCCC1 (configuration not stated) is ____.
-41.6

Dear colleague, I am looking for the recorded cytotoxicity at 10 µM of the following compound: CCOc1cc(NC(=O)N2CCOC3(CCC3)C2)ccc1C
-0.535

// lookup cytotoxicity at 10 µM for CCc1cc(O)nc(C2CCCN2C(=O)c2cc(CC)on2)n1 (configuration not stated)
-12.6

Suppose we examine the compound CC(C)(C)CC(=O)NCC(=O)Nc1ccn(Cc2ccccc2)n1 ; what cytotoxicity at 10 µM value has been reported?
7.08

What does the record list as cytotoxicity at 10 µM for COCc1nc(C(=O)N2CCCC2c2ccc(OC)cc2)cs1 (configuration not stated) ?
-3.81

cytotoxicity at 10 µM lookup needed for CCN1C(=O)CC(c2ccccc2)C12CCN(c1ncc(C)cn1)CC2 (configuration not stated) , thanks.
-2.6

// cytotoxicity at 10 µM lookup, key: Cn1ccc(C(=O)N2CCCC(n3cncn3)C2)cc1=O (configuration not stated)
-2.43
